- Tested on: U251 CNS
- Assay Info: NCI tumour cell line growth inhibition, 48 h
Metric Name: TGI (µM)
Give just the numeric value; µM need not be written.

Problem: Please provide the recorded TGI for CC(=O)Nc1cc(C(=O)Nc2cc(C(=O)N3CC(CCl)c4c3cc(N)c3ccccc43)nn2C)nn1C (stereo unspecified) , tested on U251 CNS.
Solution: 0.856

Problem: Please provide the recorded TGI for S=C(NCc1ccccc1)c1nc[nH]c1C(=S)NCc1ccccc1 , tested on U251 CNS.
Solution: 18.4

Problem: Please provide the recorded TGI for COc1cc(Nc2cn[nH]c2-c2ccc(Cl)cc2)cc(OC)c1OC , tested on U251 CNS.
Solution: 33.3

----------
- System: OVCAR-4 ovarian
- Assay Info: NCI tumour cell line growth inhibition, 48 h
Metric Name: TGI (µM)
Give just the numeric value; µM need not be written.

Problem: Please provide the recorded TGI for Cc1ccc(Cl)cc1Nc1nc(C(F)(F)F)ccc1C(=O)N1CCN(c2ccc(F)cc2)CC1 , tested on OVCAR-4 ovarian.
Solution: 27.9

Problem: Please provide the recorded TGI for CNCCCn1cc(C2=C(c3cn(C)c4ccccc34)C(=O)NC2=O)c2ccccc21 , tested on OVCAR-4 ovarian.
Solution: 14.1

----------
- Test system: UO-31 renal
- Assay Info: NCI tumour cell line growth inhibition, 48 h
Task for the reader: assign each of the following compounds its reported GI50.

Problem: What does the data say about its GI50? Entry: O=S(=O)([O-])c1ccc2c(c1)-c1nc-2nc2[n-]c(nc3nc(nc4[n-]c(n1)c1ccc(S(=O)(=O)[O-])cc41)-c1cc(S(=O)(=O)[O-])ccc1-3)c1ccc(S(=O)(=O)[O-])cc21.[Cu+2].[Na+]
Solution: > 39.6 µM

Problem: What does the data say about its GI50? Entry: CC(C)(C)C(=O)OCOP(=O)(OCOC(=O)C(C)(C)C)C1CCCN(O)C1=O (stereo not drawn)
Solution: 0.306 µM

Problem: What does the data say about its GI50? Entry: CC(O)C(N=Cc1ccccc1[O-])C(=O)[O-].CC(O)C(N=Cc1ccccc1[O-])C(=O)[O-].[Co+2] (stereo not drawn)
Solution: 76.5 µM

Problem: What does the data say about its GI50? Entry: COc1ncnc(C2CC2)c1-c1ncc2cnn(Cc3ccc(-c4nc(C(F)(F)F)cn4C(C)C)cc3)c2n1
Solution: 3.25 µM

Problem: What does the data say about its GI50? Entry: OCCN1CN(CCO)CN(c2nc(N3CN(CCO)CN(CCO)C3)nc(N3CN(CCO)CN(CCO)C3)n2)C1
Solution: 1.5 ng/mL

Problem: What does the data say about its GI50? Entry: O=S(=O)(Nc1cc(F)cc(Cl)c1)c1ccc(-c2cnc(C3CC3)o2)cc1
Solution: 2.96 µM

Problem: What does the data say about its GI50? Entry: CCOc1nc(-c2ccccc2)cc2c(O)c(-c3nnco3)[nH]c(=O)c12
Solution: 2.11 µM

Problem: What does the data say about its GI50? Entry: Cc1nc(N)sc1-c1ccnc(Nc2ccc(N3CCOCC3)cc2)n1
Solution: 1.28 µM

----------
- System: MOLT-4 leukemia
- Assay Info: NCI tumour cell line growth inhibition, 48 h
Metric Name: TGI

Problem: Please provide the recorded TGI for COC(=O)C1=C(C)N(NC(=O)c2ccccc2)C(C)(O)C12CCOC2=O (stereo unspecified) , tested on MOLT-4 leukemia.
Solution: > 100 µM

Problem: Please provide the recorded TGI for CCC(=O)NC(Nc1cccc(F)c1C)(C(F)(F)F)C(F)(F)F , tested on MOLT-4 leukemia.
Solution: > 100 µM

Problem: Please provide the recorded TGI for CC(=O)NC1C(OCc2ccccc2)OC(CO)C(O)C1OC(C)C(=O)NC(C)C(=O)NC(CCC(=O)NCCCNc1c2ccccc2nc2cccc([N+](=O)[O-])c12)C(N)=O (stereo unspecified) , tested on MOLT-4 leukemia.
Solution: > 100 µM

Problem: Please provide the recorded TGI for COc1cc(Nc2cnc3cc(F)c(F)cc3n2)cc(OC)c1OC , tested on MOLT-4 leukemia.
Solution: > 100 µM

Problem: Please provide the recorded TGI for O=C(Nc1nc2ncn(CCI)c2c(=O)[nH]1)c1ccccc1 , tested on MOLT-4 leukemia.
Solution: > 100 µM

Problem: Please provide the recorded TGI for NC(N)=NCCN=C(N)N , tested on MOLT-4 leukemia.
Solution: > 100 µM

Problem: Please provide the recorded TGI for COc1ccc(OC)c(NC(=O)C(=O)NNC(=O)c2sc(NNC(C)=O)nc2C)c1 , tested on MOLT-4 leukemia.
Solution: 47.1 µM

Problem: Please provide the recorded TGI for CS(=O)(=O)N/N=C/CN1C(=O)c2ccccc2C1=O , tested on MOLT-4 leukemia.
Solution: > 100 µM

Problem: Please provide the recorded TGI for O=[N+]([O-])c1cc2oc(COc3ccccc3)nc2cc1Cl , tested on MOLT-4 leukemia.
Solution: > 100 µM

Problem: Please provide the recorded TGI for O=C(CCCn1ccnc1[N+](=O)[O-])NCCn1cncc1[N+](=O)[O-] , tested on MOLT-4 leukemia.
Solution: > 100 µM

Problem: Please provide the recorded TGI for S=C(NCc1ccccc1)c1nc[nH]c1C(=S)NCc1ccccc1 , tested on MOLT-4 leukemia.
Solution: 25.4 µM

Problem: Please provide the recorded TGI for CCN1CCN(c2ccc(Nc3cc(N(C)C(=O)Nc4c(Cl)c(OC)cc(OC)c4Cl)ncn3)cc2)CC1 , tested on MOLT-4 leukemia.
Solution: 5.8 µM

Problem: Please provide the recorded TGI for CC(C)(C)OC(=O)NCC(O)CNC(=O)OC(C)(C)C , tested on MOLT-4 leukemia.
Solution: > 100 µM

Problem: Please provide the recorded TGI for C/C1=C\CC[C@@]2(C)O[C@@H]2[C@H]2OC(=O)[C@@H](CN(C)C)[C@@H]2CC1 , tested on MOLT-4 leukemia.
Solution: 9.82 µM

Problem: Please provide the recorded TGI for CC(=O)c1c2c(cc3c1CC1(Cc4ccccc4C1=O)C3)CCC2 (stereo unspecified) , tested on MOLT-4 leukemia.
Solution: 29.1 µM

Problem: Please provide the recorded TGI for O=c1nc2occc2cn1C1CC(O)C(CO)O1 (stereo unspecified) , tested on MOLT-4 leukemia.
Solution: > 100 µM

Problem: Please provide the recorded TGI for O=C(O)CNc1cc(-c2ccccc2)nc(NCC(=O)O)n1 , tested on MOLT-4 leukemia.
Solution: > 100 µM

Problem: Please provide the recorded TGI for O=C1CCCC/C(=C/c2ccccc2)N1 , tested on MOLT-4 leukemia.
Solution: > 100 µM

Problem: Please provide the recorded TGI for COc1cc(-c2cc(=O)c3c(OC)c(OC)c(OC)c(OC)c3o2)c(OC)c(OC)c1OC , tested on MOLT-4 leukemia.
Solution: > 100 µM

Problem: Please provide the recorded TGI for O=[N+]([O-])c1nccn1CC(O)c1ccc(F)cc1 (stereo unspecified) , tested on MOLT-4 leukemia.
Solution: > 100 µM

Problem: Please provide the recorded TGI for CCOC(=O)C1(Cc2ccc3c(c2)CCC3)Cc2cc3c(cc2C1)CCC3 , tested on MOLT-4 leukemia.
Solution: 33 µM

Problem: Please provide the recorded TGI for CNCCCn1cc(C2=C(c3cn(C)c4ccccc34)C(=O)NC2=O)c2ccccc21 , tested on MOLT-4 leukemia.
Solution: 19.1 µM

Problem: Please provide the recorded TGI for COC(C)(C)C1=CCC(C)CC1 (stereo unspecified) , tested on MOLT-4 leukemia.
Solution: > 100 µM

Problem: Please provide the recorded TGI for COCCOCc1nc(C#N)c(N)o1 , tested on MOLT-4 leukemia.
Solution: > 100 µM

Problem: Please provide the recorded TGI for CC1CC=CC(O)C1 (stereo unspecified) , tested on MOLT-4 leukemia.
Solution: > 100 µM

Problem: Please provide the recorded TGI for CC(=O)OC1CCC2(C)C3CCC4(C)C(c5ccc(=O)oc5)CC5OC54C3CCC2(O)C1 (stereo unspecified) , tested on MOLT-4 leukemia.
Solution: 0.934 µM

Problem: Please provide the recorded TGI for NNC(N)Nc1ccccc1 (stereo unspecified) , tested on MOLT-4 leukemia.
Solution: > 100 µM

Problem: Please provide the recorded TGI for COCCOc1cc(F)c2c(Nc3ccc(NC(=O)Cn4cc(C(C)C)nn4)cc3)ncnc2c1 , tested on MOLT-4 leukemia.
Solution: > 100 µM

Problem: Please provide the recorded TGI for CCOc1nc(-c2ccccc2)cc2c(O)c(-c3nnco3)[nH]c(=O)c12 , tested on MOLT-4 leukemia.
Solution: > 100 µM

Problem: Please provide the recorded TGI for CC(=O)Oc1cccc2c(/C=N/NC(N)=S)ncc(C)c12 , tested on MOLT-4 leukemia.
Solution: > 62.8 µM

Problem: Please provide the recorded TGI for O=C1CN=C(C[N+](=O)[O-])c2ccccc21 , tested on MOLT-4 leukemia.
Solution: > 100 µM

Problem: Please provide the recorded TGI for CN(c1ccc(Cl)cc1)S(=O)(=O)c1cccc([N+](=O)[O-])c1 , tested on MOLT-4 leukemia.
Solution: > 100 µM

Problem: Please provide the recorded TGI for CCOC(CCNCC(OCC)OCC)OCC , tested on MOLT-4 leukemia.
Solution: > 10 µM

Problem: Please provide the recorded TGI for N#CSC#Cc1ccc(C#CSC#N)cc1 , tested on MOLT-4 leukemia.
Solution: > 100 µM

Problem: Please provide the recorded TGI for COc1ccc(C(=O)Sc2c(-c3ccccc3)c(=O)n(-c3ccccc3)c(=S)n2-c2ccccc2)cc1 , tested on MOLT-4 leukemia.
Solution: 56.1 µM

Problem: Please provide the recorded TGI for CNc1ccc(OC)cc1S(=O)(=O)c1ccccc1[N+](=O)[O-] , tested on MOLT-4 leukemia.
Solution: > 100 µM

Problem: Please provide the recorded TGI for O=[N+]([O-])c1ccc(C=C2C(Cl)=C(Cl)C(Cl)=C2Cl)cc1 , tested on MOLT-4 leukemia.
Solution: > 100 µM

Problem: Please provide the recorded TGI for CNC(=S)NC1CCCCC1NC(=S)NC (stereo unspecified) , tested on MOLT-4 leukemia.
Solution: > 100 µM

Problem: Please provide the recorded TGI for O=C1N=c2ccccc2=C1c1c(O)[nH]c2ccccc12 , tested on MOLT-4 leukemia.
Solution: > 100 µM

Problem: Please provide the recorded TGI for CCC(C)(C)/C(CC(O)(C(F)(F)F)C(F)(F)F)=N\O , tested on MOLT-4 leukemia.
Solution: > 100 µM

Problem: Please provide the recorded TGI for Cc1nnc(S(=O)(=O)c2ccc(N=Nc3c(N)nc(N)nc3N)cc2)s1 , tested on MOLT-4 leukemia.
Solution: > 100 µM

Problem: Please provide the recorded TGI for NC(=NCCCOc1ccc(Cl)cc1)Nc1ccc(C(F)(F)F)cc1 , tested on MOLT-4 leukemia.
Solution: 5 µM

Problem: Please provide the recorded TGI for Cc1ccc(S(=O)(=O)NCC2CCCCC2=O)cc1 (stereo unspecified) , tested on MOLT-4 leukemia.
Solution: > 100 µM

Problem: Please provide the recorded TGI for COc1ccc2nc3ccc(OC)cc3c(S(=O)CCCl)c2c1 (stereo unspecified) , tested on MOLT-4 leukemia.
Solution: > 20.7 µM

Problem: Please provide the recorded TGI for COc1ccc(N=C2SC(=N/N=c3\sc4ccccc4n3C)SC2=Nc2ccc(OC)cc2)cc1 , tested on MOLT-4 leukemia.
Solution: > 100 µM

Problem: Please provide the recorded TGI for Cc1nc2ccccc2c(=O)n1NC(=O)c1ccc(CS)cc1 , tested on MOLT-4 leukemia.
Solution: 12.3 µM
